Molecular target: T1, human VEGF C (human, UniProt P49767 103-227, limits assumed)
T1 construct: also called hVEGFC; hVEGF C
T1 sequence (looked up): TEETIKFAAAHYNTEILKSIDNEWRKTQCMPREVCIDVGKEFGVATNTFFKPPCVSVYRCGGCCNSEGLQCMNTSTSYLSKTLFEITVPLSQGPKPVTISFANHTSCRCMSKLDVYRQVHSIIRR
Assay: BLI (ForteBio), bivalent binding, 30 C
Measured kon, listed per entry for reference.

{"binder": "LA63G12.1 humanized anti-VEGF C VHH-Fc antibody (Fc fusion, not shown: Fc part (and any hinge or linker) of the dimerized VHH-Fc antibody) EVQLVESGGGLVQPGGSLRLSCAASGSSFSPYAMGWYRQAPGKQRELVSATTSGGSTLYADSVKGRFTISRDNSKNTVYLQMNSLRAEDTAVYYCYMHWRGSDPENYWGQGTQVTVSS", "value-units": "M⁻¹ s⁻¹", "kon": 322000}
{"binder": "LA63G12 anti-VEGF C VHH antibody (VHH, The prokaryotic product was purified on Ni Sepharose) VHH: QLQLVESGGGLVQPGGSLRLSCAASGSSFSPYAMGWYRQAPGKQRELVAATTSGGSTLYADSVKGRFTISRDNAKNTVYLQMNSLKPEDTAVYYCYMHWRGSDPENYWGQGTQVTVSS", "value-units": "M⁻¹ s⁻¹", "kon": 305000}
{"binder": "LA49G9.2 humanized anti-VEGF C VHH-Fc antibody (Fc fusion, not shown: Fc part (and any hinge or linker) of the dimerized VHH-Fc antibody) EVQLVESGGGLVQPGGSLRLSCAASGSMFSMYAMGWYRQAPGKQRELVAATTSGGSTLYADSVKGRFTISRDNSKNTLYLQMNSLRAEDTAVYYCYTYWRGSDPENYWGQGTQVTVSS", "value-units": "M⁻¹ s⁻¹", "kon": 310000}
{"binder": "LA49G9 anti-VEGF C VHH antibody (VHH, The prokaryotic product was purified on Ni Sepharose) VHH: QLQLVESGGGLVQPGGSLRLSCAASGSMFSMYAMGWYRQAPGKQRELVAATTSGGSTLYADSVKGRFTISRDNAENTVYLQMNSLKPEDTAVYYCYTYWRGSDPENYWGRGTQVTVSS", "value-units": "M⁻¹ s⁻¹", "kon": 326000}
